The origin of these recorded values is PubChem BioAssay.

Quick reference for composite z-score among some compounds
# System: Plasmodium falciparum Sir2 (PF13_0152, Sir2A)
# ASSAY_OVERVIEW: pfSir2 binders on small-molecule microarrays, primary screen, biochemical, small-molecule microarray, 635 nm fluorescence (AID 1098);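 note: score merges spot fluorescence intensity with its signal-to-noise ratio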
# STUDY_CONDITIONS: small-molecule microarray binding, fluorescence 635 nm; higher = more signal
MEASURED_ATTRIBUTE: composite z-score

- COC(=O)C[C@H]1O[C@]2(C(=O)N(C)c3ccccc32)[C@@H](C)[C@@H]1[Si](C)(C)F: -0.0042
- COC(=O)[C@@]1(Cc2ccccc2)N=C(c2ccc(OCCCO)cc2)O[C@H]1c1ccccc1: 1.65
- COC(=O)[C@@]1(Cc2ccc(OC)cc2)[C@H]2c3cc(C(=O)N4CCCC4)n(Cc4ccc(C)c(F)c4F)c3C[C@H]2CN1C(=O)c1ccccc1: 1.05
- COc1ccc(C#Cc2ccc3c(c2)[C@]2(C(=O)N3)[C@H](C(=O)Nc3nc4ccccc4s3)[C@H]3C(=O)O[C@H](c4ccccc4)[C@H](c4ccccc4)N3[C@@H]2c2ccc(O)cc2)cc1: 1.15
- CC(=O)NCCCC[C@@H]1NC(=O)[C@H]2C[C@@H](C(=O)NCCCCCCNC(=O)CS)[C@@H](c3ccc(O)cc3)N2C1=O: 0.629
- O=C1C2C=CC(C(O)c3cccc4ccccc34)N(Nc3ccccc3F)C2C(=O)N1c1ccccc1 (stereo not given): 0.927
- C=C[C@@H](COC(=O)OC(C)(C)C)N(Cc1ccc(OC)cc1)S(=O)(=O)c1ccc(Br)cc1: 0.487
- COc1ccc(C#Cc2ccc3c(c2)[C@]2(C(=O)N3)[C@H](c3ccccc3OCCO)N3[C@H](c4ccccc4)[C@H](c4ccccc4)OC(=O)[C@H]3[C@@H]2C(=O)Nc2nc3ccccc3s2)cc1: 1.64
- COc1ccc([Si](C)(C)[C@H]2[C@H](CC(=O)N3Cc4ccccc4C[C@H]3CO)O[C@@]3(C(=O)N(Cc4cccc(N5CCC5=O)c4)c4ccccc43)[C@@H]2C)cc1: 1.31
- O=C(NC1CC1)[C@@H]1c2ccccc2C(=O)N(Cc2ccccc2Cl)[C@H]1c1ccc(CO)cc1: 0.814
- Cc1nc2cc(Br)ccc2c(=O)o1: -0.319
- COC(=O)[C@@]1(Cc2ccc(F)cc2)[C@H]2c3cc(C(=O)N4CCCC4)n(CCCNc4ncc(C(F)(F)F)cc4Cl)c3C[C@H]2CN1C(=O)c1ccccc1: 0.913
- CN(C)C(=O)[C@@]1(CCS(=O)(=O)c2ccccc2)COC(c2ccc(OCCCO)cc2)=N1: 0.656
- CC(C)[Si]1(C(C)C)O[C@@H](c2ccccc2)c2cc(-c3ccc(-c4ccc(Cl)c(Cl)c4)o3)nc(-c3ccccc3)c21: 0.735
- C[N+](C)(C)CCCC[C@@H]1NC(=O)[C@H]2C[C@@H](C(=O)NCCCCCCNC(=O)CS)[C@@H](c3cccc(OCCO)c3)N2C1=O: 0.726

---

# SYSTEM_TESTED: Carbonic anhydrase 2 (Homo sapiens) (UniProt P00918)
# ASSAY_OVERVIEW: CAII small-molecule binders, profiling panel, biochemical, small-molecule microarray, Alexa647-labelled CAII (AID 1122)
# STUDY_CONDITIONS: CAII-A647 binding fluorescence, higher = more signal
Categorized via composite z-score: I = under 0.2, II = from 0.2 up to 0.5, III = 0.5 and over

* [N-]=[N+]=NCc1ccccc1[C@@H]1OC(c2ccc(OCCCO)cc2)=N[C@]1(Cc1ccccc1)C(=O)NCC(O)CO (some centres undefined) | III
* C=C[C@H](CO)NS(=O)(=O)c1ccc(Br)cc1 | I
* C=CCC(OC(C)=O)[C@@H]1[C@@H](N(Cc2ccc(-c3ccccc3)cc2)C(=O)Cc2ccc(OC)cc2)c2cc(OCCCO)ccc2N1C(=O)Cc1ccc2ccccc2c1 (some centres undefined) | I
* COC(=O)C(CC#Cc1ccc2c(c1)[C@]1(C(=O)N2)[C@H](C(=O)Nc2nc3ccccc3s2)[C@H]2C(=O)O[C@H](c3ccccc3)[C@H](c3ccccc3)N2[C@@H]1c1ccc(O)cc1)C(=O)OC | II
* COCCOC(=O)N1C(=O)[C@@]2(c3cc(C#CCNC(N)=O)ccc31)[C@H](C(=O)Nc1nc3ccccc3s1)[C@H]1C(=O)O[C@H](c3ccccc3)[C@H](c3ccccc3)N1[C@@H]2c1ccc(OCCO)cc1 | II
* COCCOC(=O)N1C(=O)[C@@]2(c3cc(C#CCNC(N)=O)ccc31)[C@H](C(=O)N1CCN(c3ncccn3)CC1)[C@H]1C(=O)O[C@H](c3ccccc3)[C@H](c3ccccc3)N1[C@@H]2c1ccc(OCCO)cc1 | I
* NCCCCCNC(=O)[C@@H]1C[C@@H]2C(=O)N[C@@H](Cc3ccccc3)C(=O)N2[C@@H]1c1ccc(O)cc1 | II
* CCCCCCc1nc(-c2ccc(OC)nc2)cc2c1[Si](C(C)C)(C(C)C)O[C@H]2c1ccccc1 | I
* C=CCNC(=O)[C@@H]1[C@H]2C(=O)O[C@H](c3ccccc3)[C@H](c3ccccc3)N2[C@H](c2ccccc2OCCO)[C@@]12C(=O)N(C(=O)OCCOC)c1ccccc12 | II
* Cc1ccc(S[C@]2(C(=O)NC3CC3)CC(=O)N(Cc3ccccc3)[C@@H]2c2ccc(CO)cc2I)cc1 | III
* C=C(C)[C@@H]1CC=C(C(O)C2C=CC3C(=O)N(c4ccccc4)C(=O)C3N2Nc2ccccc2)CC1 (some centres undefined) | III
* COC(=O)C[C@H]1O[C@]2(C(=O)N(C)c3ccccc32)[C@@H](C)[C@@H]1[Si](C)(C)F | II
* COc1cc(Br)cc(C(O)C2C=CC3C(=O)N(C)C(=O)C3N2N2CCCCC2)c1OC (centres undefined) | III

---

# SYSTEM_TESTED: Carbonic anhydrase 2 (Homo sapiens) (UniProt P00918)
# ASSAY_OVERVIEW: CAII small-molecule binders, profiling panel, biochemical, small-molecule microarray, Alexa647-labelled CAII (AID 1122)
# STUDY_CONDITIONS: CAII-A647 binding fluorescence, higher = more signal
Quick reference for composite z-score among some molecules
MEASURED_ATTRIBUTE: composite z-score

* CCc1cccc(NC(=O)O[C@H]2[C@H](OC(=O)Nc3ccccc3-c3ccccc3)[C@@H](OC(=O)Nc3ccccc3-c3ccccc3)[C@@H](OC)O[C@@H]2CO)c1 | 0.704
* COC(=O)[C@H](Cc1ccccc1)N1CC2=C[C@@H](C3CC3)n3c(=O)n(C)c(=O)n3[C@H]2[C@@H]1[C@@H](O)Cc1ccccc1 | 0.298
* COc1ccc([C@H]2OC[C@@H]3C[C@@H](Cc4ccccc4)C(=O)N32)cc1 | 0.796
* COc1ccc(C(O)C2C=CC3C(=O)N(Cc4ccccc4)C(=O)C3N2n2cnnc2)cc1OCc1ccccc1 (stereo not drawn) | 0.771
* CCN(CC)c1ccc(N2CC=CC34O[C@@H]5C=CCCOC(=O)C5[C@H]3C(=O)N(CCCCCCO)[C@@H]4C2=O)cc1 (stereo partly drawn) | 0.885
* CCCCC(CC)C(O)C1C=CC2C(=O)N(Cc3ccccc3)C(=O)C2N1n1cnnc1 (stereo not drawn) | 0.424
* O=C(OCc1ccccc1)C1=CCC2c3[nH]c4ccccc4c3C(=O)C1N2S(=O)(=O)c1ccccc1[N+](=O)[O-] (stereo not drawn) | 0.777
* CN(C)C(=O)[C@@]1(CCS(=O)(=O)c2ccccc2)COC(c2ccc(OCCCO)cc2)=N1 | 0.813

---

# SYSTEM_TESTED: Calmodulin-1 (Homo sapiens)
# ASSAY_OVERVIEW: CALM1 binders on microarrays, EGTA buffer, profiling panel, biochemical, small-molecule microarray, Cy5-labelled CALM1 (AID 1111);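 note: labelled calmodulin applied in Tris saline Tween buffer holding calcium plus EGTA and DTT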
# STUDY_CONDITIONS: Cy5-CALM1 binding fluorescence, higher = more signal
Would you mind labelling by composite z-score? At or over -0.2 is T, under is F.

- C[C@H]1C2[C@H](Cc3ccccc3)NC(=O)[C@]23C(=O)N[C@H](Cc2ccccc2)C(=O)N2CCC[C@H]2C(=O)NC/C=C\C/C=C/C3[C@@H]2O[C@]12C (some centres not stated): F
- COc1ccc(C(=O)Nc2ccc(CN3C(=O)[C@]4(O[C@H](CCO)[C@@H]([Si](C)(C)c5ccc(OC)cc5)[C@@H]4C)c4ccccc43)cc2)cc1: T
- COc1cc2c(cc1O)C(c1cccs1)N(C)CC2 (configuration not stated): F
- Cc1ccc(S[C@]2(C(=O)NCCCN(C)C)CC(=O)N(Cc3ccccc3C(F)(F)F)[C@@H]2c2ccc(CO)cc2)cc1: T
- Cc1ccc([C@@H]2C[C@@H](Sc3ccccc3)[C@H](C(=O)O)CN2S(=O)(=O)c2ccc(C)cc2)cc1: T
- CCOC(=O)C[C@H]1[C@H](OC(=O)c2ccc(C(=O)c3ccccc3)cc2)[C@@H](NC(=O)c2ccc3ccccc3c2)c2cc(OCCCO)ccc2N1C(=O)Cc1ccc(OC)cc1: T
- [N-]=[N+]=NCc1ccccc1[C@@H]1OC(c2ccc(OCCCO)cc2)=N[C@]1(Cc1ccccc1)C(N)=O: T
